B1: POU domain, class 2, transcription factor 1, residues 285 to 354; numbered along this chain, P14859 (parent)
chain: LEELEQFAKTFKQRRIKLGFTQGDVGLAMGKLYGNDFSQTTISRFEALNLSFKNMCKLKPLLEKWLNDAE

variants of: B1; experiment: abundance fitness (aPCA) (normalised: wild type 0, dead -1); higher = more abundant; growth selection in yeast, the domain comes from the species named; conditions: Homo sapiens
ASSAY READOUT: abundance fitness

SEQUENCE ENTRY: LETLEQFAKTFKQRRIKLGFTQGDVGLAMGKLYGNDFSQTTISRFEALNLSFKNMCKLKPLLEKWLNDAE [E3T]
RESULT: -0.146
--
SEQUENCE ENTRY: LEELEQFAKTFKQRRIKIGFTQGDVGLAMGKLYGNDFSQTTISRFEALNLSFKNMCKLKPLLEKWLNDAE [L18I]
RESULT: -0.261
--
SEQUENCE ENTRY: LEELEQFAKTFKQRRIKLGFTQGDVGLAMGKLYGNDFSQTTISRFEALNLSYKNMCKLKPLLEKWLNDAE [F52Y]
RESULT: 0.001
--
SEQUENCE ENTRY: LEELEQFAKTFKQLRIKLGFTQGDVGLAMGKLYGNDFSQTTISRFEALNLSFKNMCKLKPLLEKWLNDAE [R14L]
RESULT: -0.105
--
SEQUENCE ENTRY: LEELSQFAKTFKQRRIKLGFTQGDVGLAMGKLYGNDFSQTTISRFEALNLSFKNMCKLKPLLEKWLNDAE [E5S]
RESULT: -0.039
